Origin of values: ChEMBL document CHEMBL4513141

- Test system: Escherichia coli
- measurement setup: Concentration 20 uM; ASSAY_TEST Inhibition of Bacterial Growth; detection method Absorption (OD600); MEDIA CAMHB; plate type 384well; NBS; CORNING #3640; time 18 hr
Potency and affinity values are given separately.
Reported values of Inhibition for individual entries
quantity name: Inhibition (%)

molecule | unit text | number
Cc1ccccc1C(OCCN(C)C)c1ccccc1.Cl (centres undefined) [ORPHENADRINE HYDROCHLORIDE] | % | -1.64
Cc1cccc(C)c1NC(=O)C1CCCCN1C.Cl (centres undefined) [MEPIVACAINE HYDROCHLORIDE] | % | 6.74
Nc1ncnc2c1ncn2[C@@H]1O[C@H](CO)[C@@H](O)[C@@H]1O | % | 6.8
Nc1nc(N)nc(-c2cc(Cl)ccc2Cl)n1.O=C(O)/C=C\C(=O)O [IRSOGLADINE MALEATE] | % | 0.86
CNC(=C[N+](=O)[O-])NCCSCc1csc(CN(C)C)n1 | % | 4.27
CNCCC=C1c2ccccc2CCc2ccccc21.Cl [NORTRIPTYLINE HYDROCHLORIDE] | % | 4.29
CN(C/C=C/C#CC(C)(C)C)Cc1cccc2ccccc12.Cl [TERBINAFINE HYDROCHLORIDE] | % | 3
O=C1N[C@H](C(=O)O)CS1 | % | 6.28
CC(C(=O)O)c1cccc(C(=O)c2ccccc2)c1 (centres undefined) | % | -2.29

====

- Test system: Staphylococcus aureus
- measurement setup: Concentration 20 uM; ASSAY_TEST Inhibition of Bacterial Growth; detection method Absorption (OD600); MEDIA CAMHB; plate type 384well; NBS; CORNING #3640; time 18 hr
Results with a measured potency or affinity are listed apart.

compound | unit text | Inhibition
CN1CCC(=C2c3ccccc3CCc3sccc32)CC1.O=C(O)/C=C\C(=O)O | % | 4.8
CCCCC(=O)OC1(C(=O)CO)CCC2C3CCC4=CC(=O)CCC4(C)C3C(O)CC21C (configuration not stated) | % | 4.02
CCCCNc1cc(C(=O)O)cc(S(N)(=O)=O)c1Oc1ccccc1 [BUMETANIDE] | % | 10.97
NC(=O)N1c2ccccc2CC(=O)c2ccccc21 [OXCARBAZEPINE] | % | 15.1
CN(C)CCCSc1ccccc1NC(=O)/C=C/c1ccccc1.Cl.O | % | 14.82
Cl.Nc1c2c(nc3ccccc13)CCCC2 [TACRINE HYDROCHLORIDE] | % | 10.46
Cl.c1ccc2c(c1)CCCC2C1=NCCN1 (configuration not stated) [TETRAHYDROZOLINE HYDROCHLORIDE] | % | 17.23
CCN(CC)CCNC(=O)c1ccc(N)cc1.Cl [PROCAINAMIDE HYDROCHLORIDE] | % | -10.39
CCCc1nc(C)c2c(O)nc(-c3cc(S(=O)(=O)N4CCN(CC)CC4)ccc3OCC)nn12.O=C(O)CC(O)(CC(=O)O)C(=O)O | % | 14.18
C=C1/C(=C\C=C2/CCC[C@]3(C)[C@@H]([C@H](C)/C=C/[C@@H](O)C4CC4)CC[C@@H]23)C[C@@H](O)C[C@@H]1O | % | 9.78
CN(C)CCCN1c2ccccc2CCc2ccccc21.Cl [IMIPRAMINE HYDROCHLORIDE] | % | 8.95
CC(=O)O[C@@]12CO[C@@H]1C[C@H](O)[C@@]1(C)C(=O)[C@H](O)C3=C(C)[C@@H](OC(=O)[C@H](O)[C@@H](NC(=O)OC(C)(C)C)c4ccccc4)C[C@](O)([C@@H](OC(=O)c4ccccc4)[C@H]21)C3(C)C | % | 10.2
CCCC1O[C@@H]2C[C@H]3[C@@H]4CCC5=CC(=O)C=C[C@]5(C)[C@H]4[C@@H](O)C[C@]3(C)[C@]2(C(=O)CO)O1 (some centres not stated) [BUDESONIDE] | % | 6.99
CCN1CCC[C@H]1CNC(=O)c1cc(S(N)(=O)=O)ccc1OC [LEVOSULPIRIDE] | % | 7.78
Cl.Clc1ccc2nsnc2c1NC1=NCCN1 [TIZANIDINE HYDROCHLORIDE] | % | -18.93
COc1ccc(Cl)cc1C(=O)NCCc1ccc(S(=O)(=O)NC(=O)NC2CCCCC2)cc1 [GLYBURIDE] | % | -3.01
Nc1nc2c(ncn2COCCO)c(=O)[nH]1 | % | -22.02

====

- Tested on: Staphylococcus aureus
- measurement setup: Concentration 20 uM; ASSAY_TEST Inhibition of Bacterial Growth; detection method Absorption (OD600); MEDIA CAMHB; plate type 384well; NBS; CORNING #3640; time 18 hr
Entries with a potency or affinity are not part of this list.

molecule | system tested | unit text | Inhibition
CC(=O)[C@H]1CC[C@H]2[C@@H]3C[C@H](C)C4=CC(=O)CC[C@]4(C)[C@H]3[C@@H](O)C[C@]12C [MEDRYSONE] | Staphylococcus aureus | % | 2.89
Cc1onc(-c2ccccc2)c1-c1ccc(S(N)(=O)=O)cc1 [VALDECOXIB] | Staphylococcus aureus | % | 10.74
O=C1[C@H](CC[C@H](O)c2ccc(F)cc2)[C@@H](c2ccc(O)cc2)N1c1ccc(F)cc1 [EZETIMIBE] | Staphylococcus aureus | % | 5.57
CN(C)CCOC(c1ccc(Cl)cc1)c1ccccn1.O=C(O)/C=C\C(=O)O (centres undefined) [CARBINOXAMINE MALEATE] | Staphylococcus aureus | % | 10.84

====

Inhibition values, listed per item
- System: Escherichia coli
- measurement setup: Concentration 20 uM; ASSAY_TEST Inhibition of Bacterial Growth; detection method Absorption (OD600); MEDIA CAMHB; plate type 384well; NBS; CORNING #3640; time 18 hr
Entries with a potency or affinity are not part of this list.
quantity name: Inhibition (%)

compound | unit text | number
C[C@]12CCC(=O)C=C1CC[C@@H]1[C@@H]2C(=O)C[C@@]2(C)[C@H]1CC[C@]2(O)C(=O)CO | % | 3.83
CC1CNc2c(cccc2S(=O)(=O)N[C@@H](CCCNC(=N)N)C(=O)N2CC[C@@H](C)C[C@@H]2C(=O)O)C1 (stereo not given in full) | % | -1.85
CCCCNc1cc(C(=O)O)cc(S(N)(=O)=O)c1Oc1ccccc1 [BUMETANIDE] | % | 5.78
CC(C)(C)NCC(O)COc1cccc2c1CC(O)C(O)C2 (stereo not given) | % | 3.67
O=C(CCCN1CC=C(n2c(=O)[nH]c3ccccc32)CC1)c1ccc(F)cc1 | % | -7.37
CC1(C)O[C@@H]2C[C@H]3[C@@H]4C[C@H](F)C5=CC(=O)C=C[C@]5(C)[C@H]4[C@@H](O)C[C@]3(C)[C@]2(C(=O)CO)O1 [FLUNISOLIDE] | % | 3.33
CC(C)(S)C(N)C(=O)O (stereo not given) | % | -3.28
CC(C(=O)[O-])c1ccc(CC2CCCC2=O)cc1.[Na+] (stereo not given) [LOXOPROFEN SODIUM] | % | -0.84
CN(C)CCOC(c1ccc(Cl)cc1)c1ccccn1.O=C(O)/C=C\C(=O)O (stereo not given) [CARBINOXAMINE MALEATE] | % | 3.54
O=C1N=C([O-])NC1(c1ccccc1)c1ccccc1.[Na+] [PHENYTOIN SODIUM] | % | 2.45
CCN1CC(CCN2CCOCC2)C(c2ccccc2)(c2ccccc2)C1=O.Cl (stereo not given) | % | 2.66
Oc1ncc(F)cn1 | % | 10.23
CC(=O)CCCCn1c(=O)c2c(ncn2C)n(C)c1=O | % | 2.27
Nc1ccn([C@@H]2CS[C@H](CO)O2)c(=O)n1 | % | 8.04
N[C@@H]1CONC1=O | % | 1.47

====

- System: Escherichia coli
- measurement setup: Concentration 20 uM; ASSAY_TEST Inhibition of Bacterial Growth; detection method Absorption (OD600); MEDIA CAMHB; plate type 384well; NBS; CORNING #3640; time 18 hr
Entries with a potency or affinity are not part of this list.
quantity name: Inhibition (%)

compound | unit text | number
COc1ccc(Cl)cc1C(=O)NCCc1ccc(S(=O)(=O)NC(=O)NC2CCCCC2)cc1 [GLYBURIDE] | % | -12.57
C[n+]1ccccc1/C=N/O.[Cl-] [PRALIDOXIME CHLORIDE] | % | 4.53
CNNCc1ccc(C(=O)NC(C)C)cc1.Cl [PROCARBAZINE HYDROCHLORIDE] | % | -2.72
CS(=O)(=O)c1ccc(C2=C(c3ccccc3)C(=O)OC2)cc1 | % | -7.03
Cc1nc2n(c(=O)c1CCN1CCC(c3noc4cc(F)ccc34)CC1)CCCC2 | % | 2.58

====

Below is a list of entries, each paired with its recorded Inhibition value.
- System: Staphylococcus aureus
- measurement setup: Concentration 20 uM; ASSAY_TEST Inhibition of Bacterial Growth; detection method Absorption (OD600); MEDIA CAMHB; plate type 384well; NBS; CORNING #3640; time 18 hr
Entries with a potency or affinity are not part of this list.

compound | Inhibition (%)
O=C1CN(/N=C/c2ccc(-c3ccc([N+](=O)[O-])cc3)o2)C(=O)[N-]1.[Na+] [DANTROLENE SODIUM] | 4.1
O=[N+]([O-])c1cccc2cn[nH]c12 | 16.98
O=C(C1CCCCC1)N1CC(=O)N2CCc3ccccc3C2C1 (stereo unspecified) | 20.65
Nc1nc2c(ncn2COC(CO)CO)c(=O)[nH]1 | 7.88
Cc1cc2c(s1)Nc1ccccc1N=C2N1CCN(C)CC1 | 9.67
CN(C/C=C/C#CC(C)(C)C)Cc1cccc2ccccc12.Cl [TERBINAFINE HYDROCHLORIDE] | 10.26
